I'd be grateful if you could share measured EC50 (antiviral activity, TZM-bl cells, luciferase) for these entries.
TARGET OF ASSAY: gp120 of viral strain VI1888 (CRF01) (HIV, strain VI1888 (CRF01))
MEASUREMENT DESCRIPTION: cell-based or functional assay
*1 amine or outer side, *2 acyl side, *3 side chain or, on linkers, in order; H or OH if unused. [ ]: non-standard residue; d: D form. U1 = 4-cyclohexylmethoxy-L-phenylalanine, O=C([C@H](Cc1ccc(OCC2CCCCC2)cc1)N[*:1])[*:2]; Tpa = thiopropionic acid
Answer format: numeric, µM implied, no suffix.

[ask] Value lookup for EC50 (antiviral activity, TZM-bl cells, luciferase); key = Tpa-NLHKCQLRCSSLGLLGRCA[dP]T[U1]CACV-NH2 (disulfide (positions not given here)) [mCD4.2]
[reply] 9.76

[ask] Value lookup for EC50 (antiviral activity, TZM-bl cells, luciferase); key = Tpa-NLHKCQLRCRSLGLLGRCA[dP]T[U1]CACV-NH2 (disulfide (positions not given here)) [mCD4.3]
[reply] 8.02

[ask] Value lookup for EC50 (antiviral activity, TZM-bl cells, luciferase); key = mCD4.1-PS1 (N-terminal gamma-aminobutyric acid (gammaAbu) acylated with 3-thiopropionyl (from SATP); all six Tyr are sulfotyrosine (YSO3); N-terminal Tpa (thiopropionic acid); Bip at position 23; C-terminal …; Lys5 N-epsilon carries the PEO2-maleimide linker bound to the thiol of the PS1 chain) peptide 1: NLHKCQLRCSSLGLLGRCAGSFCACV peptide 2: SYDYSYDYSYDYS
[reply] 1.1

[ask] Value lookup for EC50 (antiviral activity, TZM-bl cells, luciferase); key = mCD4.3-PS1 (not fully specified; N-terminal gamma-aminobutyric acid (gammaAbu) acylated with 3-thiopropionyl (from SATP); all six Tyr are sulfotyrosine (YSO3); N-terminal Tpa; D-proline at position 21; U1 (4-cyclohexylmethoxy-L-phenylalanine) at position 23; C-terminal amide; Lys5 N-epsilon carries the PEO2-maleimide linker bound to the thiol of the PS1 chain) peptide 1: NLHKCQLRCRSLGLLGRCAPTFCACV peptide 2: SYDYSYDYSYDYS
[reply] 1.21

[ask] Value lookup for EC50 (antiviral activity, TZM-bl cells, luciferase); key = Tpa-NLHFCQLRCKSLGLLGRCA[dP]T[U1]CACV-NH2 (disulfide (positions not given here)) [M48U1]
[reply] 8.42
